target: 5-HT2A receptor (Homo sapiens, UniProt P28223); construct: host or cells: HEK293; assay: FLIPR Ca2+ flux functional assay, agonist activity at 5-HT2A; assay type: cell-based; settings: HEK293 cells, Ca2+ flux
Sequence (P28223 whole entry): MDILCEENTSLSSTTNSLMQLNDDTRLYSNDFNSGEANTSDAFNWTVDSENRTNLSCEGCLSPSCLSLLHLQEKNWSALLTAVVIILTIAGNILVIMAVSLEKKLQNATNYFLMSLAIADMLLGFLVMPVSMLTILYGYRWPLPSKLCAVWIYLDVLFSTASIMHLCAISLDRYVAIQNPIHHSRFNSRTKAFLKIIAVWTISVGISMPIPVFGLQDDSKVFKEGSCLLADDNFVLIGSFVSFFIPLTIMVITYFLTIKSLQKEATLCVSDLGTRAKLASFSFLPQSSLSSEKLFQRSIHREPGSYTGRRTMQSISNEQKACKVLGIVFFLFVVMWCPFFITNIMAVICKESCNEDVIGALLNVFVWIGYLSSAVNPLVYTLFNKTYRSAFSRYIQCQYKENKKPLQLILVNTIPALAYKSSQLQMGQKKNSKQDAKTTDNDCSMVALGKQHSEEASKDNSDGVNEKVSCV
Could you label it condition met if measured Emax is 60% or higher, and condition not met otherwise?

# count of solved cases: 3
{"columns": ["compound", "cat"],
 "data": [
  ["COc1ccc2[nH]cc(CCN(C)C(C)C)c2n1 [Example P-14]", "condition met"],
  ["COc1nccc2[nH]cc(CCN(C)C(C)C)c12 [Example P-38]", "condition met"],
  ["COc1ccc2[nH]cc(CCN(C(C)C)C(C)C)c2n1 [Example P-12]", "condition met"]
]}

Query string: Determine whether measured Emax meets or exceeds 60% for CCN(C)CCc1c[nH]c2nccc(F)c12 [Example P-33]
Result string: condition not met
